Below: a set of entries, each annotated with reported pEC50.
# tgt: STAT6 (Homo sapiens, UniProt P42226)
# Construct: stably transfected HaCaT keratinocyte cell line, which expresses NanoLuc luciferase reporter gene under the transcriptional control of the STAT6 responsive promoter; endogenous in cells; host or cells: HaCaT keratinocyte reporter cell line (stably transfected with a NanoLuc reporter)
# Sequence (P42226 whole entry): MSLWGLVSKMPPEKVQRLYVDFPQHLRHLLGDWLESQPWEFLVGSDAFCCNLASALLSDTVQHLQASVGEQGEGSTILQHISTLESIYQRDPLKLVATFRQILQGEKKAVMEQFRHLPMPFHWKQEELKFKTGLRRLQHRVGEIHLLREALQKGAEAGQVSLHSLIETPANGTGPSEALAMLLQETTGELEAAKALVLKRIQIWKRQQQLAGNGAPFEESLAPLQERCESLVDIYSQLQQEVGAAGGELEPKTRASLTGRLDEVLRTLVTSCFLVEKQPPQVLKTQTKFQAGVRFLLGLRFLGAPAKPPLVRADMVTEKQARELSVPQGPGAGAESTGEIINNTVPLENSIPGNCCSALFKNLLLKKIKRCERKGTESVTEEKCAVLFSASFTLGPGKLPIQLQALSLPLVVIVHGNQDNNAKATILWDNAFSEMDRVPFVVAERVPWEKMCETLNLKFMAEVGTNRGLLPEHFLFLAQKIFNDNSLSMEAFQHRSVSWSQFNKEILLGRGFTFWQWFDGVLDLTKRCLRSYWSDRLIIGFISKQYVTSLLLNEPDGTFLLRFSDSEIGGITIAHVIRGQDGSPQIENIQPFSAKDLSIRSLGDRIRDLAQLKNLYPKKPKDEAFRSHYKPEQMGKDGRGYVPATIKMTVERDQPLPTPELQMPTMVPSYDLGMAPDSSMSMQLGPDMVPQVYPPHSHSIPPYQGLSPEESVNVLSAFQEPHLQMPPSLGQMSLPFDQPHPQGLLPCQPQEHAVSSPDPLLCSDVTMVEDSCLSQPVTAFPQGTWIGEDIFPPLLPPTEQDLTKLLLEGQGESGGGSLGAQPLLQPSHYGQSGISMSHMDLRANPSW
# assay summary: STAT6 Reporter Luciferase Assay (IL-13 stimulated HaCaT keratinocyte NanoLuc reporter cells)
# Type: cell-based
# experimental context: IL-13 stimulated HaCaT STAT6 NanoLuc reporter cells; read-out: Reporter EC50
pEC50: −log10 of the molar value.
measure name: pEC50

| compound | measure name | meas value |
| --- | --- | --- |
| CCn1nc(C(=O)NCc2ccc(NC(=O)N(C)C)cc2)c2c1C(C(F)(F)F)CN(c1ccc(C(=O)N(C)C)cn1)C2 (single isomer, unassigned) [Example 304] | pEC50 | 9.52 |
| CC(C)n1nc(C(=O)NCc2ccc(NC(=O)N3CCC4(CCCN(C)C4)CC3)c(F)c2)c2c1[C@@H](C)CN(c1ccc(C(=O)N(C)C)cc1)C2 | pEC50 | 9.00 |
| Cc1cnn2c1CN(C(=O)c1ccc(N3CCc4c(c(C(=O)NCc5ccc(NC(=O)N(C)C)cc5)nn4C(C)C)C3)nc1)CC2 | pEC50 | 7.36 |
| CC(C)n1nc(C(=O)NCc2ccc(NC(=O)N(C)C)cc2)c2c1CCN(c1ccc(C(=O)N3CCn4ccnc4C3)cn1)C2 | pEC50 | 7.23 |
| CC(C)n1nc(C(=O)NCc2ccc(NC(=O)N(C)C)cc2)c2c1CCN(c1ccc(C(=O)N3CC[C@H](C#N)C3)cn1)C2 | pEC50 | 6.10 |
| CC(C)n1nc(C(=O)NCc2ccc(NC(=O)N(C)C)cn2)c2c1C[C@H](C)N(c1ncc(C(=O)N(C)C)cn1)C2 | pEC50 | 8.30 |
| CN[C@@H]1CCN(C(=O)Nc2ccc(CNC(=O)c3nn(C(C)C)c4c3CN(c3ccc(C(=O)N(C)C)cc3)C[C@@H]4C)cc2)C1 | pEC50 | 8.10 |
| CC(C)n1nc(C(=O)NCc2ccc(NC(=O)N3CCC4(CC3)CNCCO4)cc2)c2c1[C@@H](C)CN(c1ccc(C(=O)N(C)C)cc1)C2 | pEC50 | 9.00 |
| CC(C)C1CN(c2ccc(C(=O)N(C)C)cn2)Cc2c(C(=O)NCc3ccc(NC(=O)N(C)C)cc3)nn(C)c21 (single isomer, unassigned) [Example 271] | pEC50 | 7.96 |
| CC(C)n1nc(C(=O)NCc2ccc(NC(=O)N3CCC4(CC3)CN(C)C4)cc2)c2c1[C@@H](C)CN(c1ccc(-n3ccccc3=O)cn1)C2 | pEC50 | 8.70 |

----------
# tgt: STAT6 (Homo sapiens)
# Construct: stably transfected HaCaT keratinocyte cell line, which expresses NanoLuc luciferase reporter gene under the transcriptional control of the STAT6 responsive promoter; endogenous in cells; host or cells: HaCaT keratinocyte reporter cell line (stably transfected with a NanoLuc reporter)
# assay summary: STAT6 Reporter Luciferase Assay (IL-13 stimulated HaCaT keratinocyte NanoLuc reporter cells)
# Assay type: cell-based
# experimental context: IL-13 stimulated HaCaT STAT6 NanoLuc reporter cells; read-out: Reporter EC50
pEC50: −log10 of the molar value.
// label = y if pEC50 is not less than 8, otherwise n

| molecule | label |
| --- | --- |
| CC(C)n1nc(C(=O)NCc2ccc(NC(=O)N3CCC4(CCN(C)C4)CC3)cc2)c2c1[C@@H](C)CN(c1ccc(C(=O)N(C)C)cc1)C2 [Example 753] | y |
| CC(C)n1nc(C(=O)NCc2ccc(NC(=O)N3CCN(C)CC3)cc2)c2c1C(C(F)(F)F)CN(c1ccc(C(=O)N(C)C)cc1)C2 (racemic) [Example 703] | y |
| CN(C)C(=O)Nc1ccc(CNC(=O)c2nn(C3CCOC3)c3c2CN(c2ccc(C(=O)N(C)C)cn2)CC3)cc1 (single isomer, unassigned) [Example 190] | n |

----------
# tgt: STAT6 (Homo sapiens, UniProt P42226)
# Construct: stably transfected HaCaT keratinocyte cell line, which expresses NanoLuc luciferase reporter gene under the transcriptional control of the STAT6 responsive promoter; endogenous in cells; host or cells: HaCaT keratinocyte reporter cell line (stably transfected with a NanoLuc reporter)
# assay summary: STAT6 Reporter Luciferase Assay (IL-13 stimulated HaCaT keratinocyte NanoLuc reporter cells)
# Assay type: cell-based
# experimental context: IL-13 stimulated HaCaT STAT6 NanoLuc reporter cells; read-out: Reporter EC50
pEC50: −log10 of the molar value.
Consider the following molecules and their measured pEC50 readings.

| molecule | pEC50 |
| --- | --- |
| CN(C)C(=O)Nc1ccc(CNC(=O)c2nn(C3(C(F)(F)F)CC3)c3c2CN(c2ccc(C(=O)N(C)C)cn2)CC3)cc1 [Example 320] | 8.30 |
| CCc1nc(C(=O)NCc2ccc(NC(=O)N(C)C)cc2)c2n1C(C)CN(c1ccc(C(=O)N(C)C)cn1)C2 (racemic) [Example 205] | 8.30 |
| CO[C@@H]1CN(C(=O)c2ccc(N3CCc4c(c(C(=O)NCc5ccc(NC(=O)N(C)C)cc5)nn4C(C)C)C3)nc2)C[C@H]1OC (racemic) [Example 333] | 5.55 |
| CN(C)C(=O)Nc1ccc(CN2CCCn3nc4c(c3C2=O)CN(c2ccc(C(=O)N(C)C)cn2)CC4)cc1 [Example 252] | 6.41 |
| CNC(=O)C1CCCN1C(=O)c1ccc(N2CCc3c(c(C(=O)NCc4ccc(NC(=O)N(C)C)cc4)nn3C(C)C)C2)nc1 (racemic) [Example 245] | 5.68 |
| COCC1(N)CCN(C(=O)Nc2ccc(CNC(=O)c3nn(C(C)C)c4c3CN(c3ccc(C(=O)N(C)C)cc3)C[C@@H]4C)cc2)C1 (single isomer, unassigned) [Example 673] | 8.70 |

----------
# tgt: STAT6 (Homo sapiens)
# Construct: stably transfected HaCaT keratinocyte cell line, which expresses NanoLuc luciferase reporter gene under the transcriptional control of the STAT6 responsive promoter; endogenous in cells; host or cells: HaCaT keratinocyte reporter cell line (stably transfected with a NanoLuc reporter)
# assay summary: STAT6 Reporter Luciferase Assay (IL-13 stimulated HaCaT keratinocyte NanoLuc reporter cells)
# Assay type: cell-based
# experimental context: IL-13 stimulated HaCaT STAT6 NanoLuc reporter cells; read-out: Reporter EC50
# Description: Pharmacological measurements of STAT6 transcriptional activity through the IL-13-IL-13 receptor/IL-4 receptor pathway were made with a stably transfected HaCaT keratinocyte cell line, which expresses NanoLuc luciferase reporter gene under the transcriptional control of the STAT6 responsive promoter for IL-13Ra2. The readout of the STAT6 activity utilized Promega Nano-Glo Luciferase assay kit. […]
Documented log10 of EC50 across a set of compounds
measure name: log10 of EC50 (log10 of the value in nM)

| compound | tgt | log10 of EC50 |
| --- | --- | --- |
| CC(C)n1nc(C(=O)NCc2ccc(NC(=O)N3CC(F)C3)cc2)c2c1[C@@H](C)CN(c1ccc(C(=O)N(C)C)cn1)C2 | STAT6 (Homo sapiens) | 0.00 |
| CC(C)n1nc(C(=O)NCc2ccc(NC(=O)N3CCCC3)cc2)c2c1[C@@H](C)CN(c1ccc(C(=O)N(C)C)cn1)C2 | STAT6 (Homo sapiens) | 0.00 |
| CNC(=O)Cc1ccc(N2CCc3c(c(C(=O)NCc4ccc(NC(=O)N(C)C)cc4)nn3C(C)C)C2)nc1 | STAT6 (Homo sapiens) | 3.73 |
| COCC1(N)CCN(C(=O)Nc2ccc(CNC(=O)c3nn(C(C)C)c4c3CN(c3ccc(C(=O)N(C)C)cc3)C[C@@H]4C)cc2)CC1 | STAT6 (Homo sapiens) | 0.00 |
| CCn1nc(C(=O)NCc2ccc(-c3nc(C)c[nH]3)cc2)c2c1[C@@H](C)CN(c1ncc(C(=O)N(C)C)cn1)C2 | STAT6 (Homo sapiens) | 0.00 |
| CCn1nc(C(=O)NCc2ccc(C(=O)NC)cc2)c2c1[C@@H](C)CN(c1ccc(C(=O)N(C)C)cn1)C2 | STAT6 (Homo sapiens) | 0.90 |
| CCn1nc(C(=O)NCc2ccc(NC(=O)N(C)C)cc2)c2c1CCN(c1ccc(C(=O)N(C)C)cn1)[C@H]2C | STAT6 (Homo sapiens) | 2.38 |
| CNC(=O)c1ccc(CNC(=O)c2nn(C(C)C)c3c2CN(c2ccc(N4CCCC4=O)cn2)C[C@@H]3C)cc1 | STAT6 (Homo sapiens) | 0.30 |
| CN(C)C(=O)Nc1ccc(CNC(=O)c2nn(C)c3c2CN(c2ccc(C(=O)N(C)C)cn2)CC3C(F)(F)F)cc1 (single isomer, unassigned) | STAT6 (Homo sapiens) | 2.87 |
| CC(C)n1nc(C(=O)NCc2ccc(NC(=O)N(C)C)cc2)c2c1CCN(c1ccc(C3CCCO3)cn1)C2 (racemic) [Example 322] | STAT6 (Homo sapiens) | 1.89 |
| CCO[C@H]1CCN(C(=O)c2ccc(N3CCc4c(c(C(=O)NCc5ccc(NC(=O)N(C)C)cc5)nn4C(C)C)C3)nc2)C1 | STAT6 (Homo sapiens) | 2.54 |
| CC1c2c(C(=O)NCc3ccc(NC(=O)N(C)C)cc3)nn(C(C)C)c2[C@@H](C)CN1c1ccc(C(=O)N(C)C)cn1 (mixture of isomers) | STAT6 (Homo sapiens) | -1.00 |
| CC(C)n1nc(C(=O)NCc2ccc(NC(=O)N(C)C)cc2)c2c1CCN(c1ccc(C(=O)N3Cc4ccccc4C3)cn1)C2 | STAT6 (Homo sapiens) | 0.30 |
| CC(C)n1nc(C(=O)NCc2ccc(NC(=O)N(C)C)cc2)c2c1C(O)CN(c1ccc(C(=O)N(C)C)cn1)C2 (stereo not drawn) [Example 473] | STAT6 (Homo sapiens) | -0.52 |
| CN(C)C(=O)Nc1ccc(CN2CCn3nc4c(c3C2=O)CN(c2ccc(C(=O)N(C)C)cn2)CC4)cc1 | STAT6 (Homo sapiens) | 1.45 |
